Sourced from ChEMBL document CHEMBL1933046

For each record, write down the corresponding MIC.
system: Streptococcus pneumoniae; experiment: Antibacterial activity against Streptococcus pneumoniae 49619 by NCCLS method; type: functional
One number for each entry, in µg/mL.

Illustrative cases are given below, each with its answer.
C=CCN(C)[C@H]1C[C@@H](C)O[C@@H](O[C@@H]2[C@@H](C)[C@H](OC(=O)Cc3ccccn3)[C@@H](C)C(=O)O[C@H](CC)[C@@]3(C)OC(=O)N(CCCCn4cnc(-c5ccc(N)nc5)c4)[C@@H]3[C@@H](C)C(=O)[C@H](C)C[C@@]2(C)OC)[C@@H]1O	0.06
C=CCN(C)[C@H]1C[C@@H](C)O[C@@H](O[C@@H]2[C@@H](C)[C@H](OC(=O)Cc3ccccn3)[C@@H](C)C(=O)O[C@H](CC)[C@@]3(C)OC(=O)N(CCCCn4cnc(-c5ccnc(N)c5)c4)[C@@H]3[C@@H](C)C(=O)[C@H](C)C[C@@]2(C)OC)[C@@H]1O	0.03

Batch of 4 compounds: report MIC for each.
1. C=CCN(C)[C@H]1C[C@@H](C)O[C@@H](O[C@@H]2[C@@H](C)[C@H](OC(=O)Cc3ccccn3)[C@@H](C)C(=O)O[C@H](CC)[C@@]3(C)OC(=O)N(CCCCn4cnc5ncccc54)[C@@H]3[C@@H](C)C(=O)[C@H](C)C[C@@]2(C)OC)[C@@H]1O
2. CC[C@H]1OC(=O)[C@H](C)[C@@H](OC(=O)Cc2cccnc2)[C@H](C)[C@@H](O[C@@H]2O[C@H](C)C[C@H](N(C)CC)[C@H]2O)[C@](C)(OC)C[C@@H](C)C(=O)[C@H](C)[C@H]2N(CCCCn3cnc(-c4ccc(N)nc4)c3)C(=O)O[C@]12C
3. CC[C@H]1OC(=O)[C@H](C)[C@@H](OC(=O)Cc2cccnc2)[C@H](C)[C@@H](O[C@@H]2O[C@H](C)C[C@H](N(C)CC)[C@H]2O)[C@](C)(OC)C[C@@H](C)C(=O)[C@H](C)[C@H]2N(CCCCn3cnc4ncccc43)C(=O)O[C@]12C
4. CC[C@H]1OC(=O)[C@H](C)[C@@H](O[C@H]2C[C@@](C)(OC)[C@@H](O)[C@H](C)O2)[C@H](C)[C@@H](O[C@@H]2O[C@H](C)C[C@H](N(C)C)[C@H]2O)[C@](C)(O)C[C@@H](C)C(=O)[C@H](C)[C@@H](O)[C@]1(C)O [ERYTHROMYCIN]

Response line:
1. 0.06
2. 0.06
3. 0.03
4. 0.125

Batch of 2 compounds: report MIC for each.
1. C=CCN(C)[C@H]1C[C@@H](C)O[C@@H](O[C@@H]2[C@@H](C)[C@H](OC(=O)Cc3ccccn3)[C@@H](C)C(=O)O[C@H](CC)[C@@]3(C)OC(=O)N(CCCCn4cncc4-c4ccco4)[C@@H]3[C@@H](C)C(=O)[C@H](C)C[C@@]2(C)OC)[C@@H]1O
2. CC[C@H]1OC(=O)[C@H](C)[C@@H](OC(=O)Cc2ccccn2)[C@H](C)[C@@H](O[C@@H]2O[C@H](C)C[C@H](N(C)CC)[C@H]2O)[C@](C)(OC)C[C@@H](C)C(=O)[C@H](C)[C@H]2N(CCCCn3cnc4ncccc43)C(=O)O[C@]12C

Response line:
[0.015, 0.015]

====

system: Streptococcus pneumoniae; test: Antibacterial activity against Streptococcus pneumoniae 6303 by NCCLS method; assay type: functional
For each record, write down the corresponding MIC.
Give bare numbers, in µg/mL.

Illustrative cases are given below, each with its answer.
CC[C@H]1OC(=O)[C@H](C)[C@@H](OC(=O)Cc2ccccn2)[C@H](C)[C@@H](O[C@@H]2O[C@H](C)C[C@H](N(C)CC)[C@H]2O)[C@](C)(OC)C[C@@H](C)C(=O)[C@H](C)[C@H]2N(CCCCn3cnc(-c4cccnc4)c3)C(=O)O[C@]12C	0.06
CC[C@H]1OC(=O)[C@H](C)[C@@H](OC(=O)Cc2cccnc2)[C@H](C)[C@@H](O[C@@H]2O[C@H](C)C[C@H](N(C)CC)[C@H]2O)[C@](C)(OC)C[C@@H](C)C(=O)[C@H](C)[C@H]2N(CCCCn3cnc(-c4ccc(N)nc4)c3)C(=O)O[C@]12C	0.06
C=CCN(C)[C@H]1C[C@@H](C)O[C@@H](O[C@@H]2[C@@H](C)[C@H](OC(=O)Cc3cccnc3)[C@@H](C)C(=O)O[C@H](CC)[C@@]3(C)OC(=O)N(CCCCn4ccc5cccnc54)[C@@H]3[C@@H](C)C(=O)[C@H](C)C[C@@]2(C)OC)[C@@H]1O	0.06
C=CCN(C)[C@H]1C[C@@H](C)O[C@@H](O[C@@H]2[C@@H](C)[C@H](OC(=O)Cc3ccccn3)[C@@H](C)C(=O)O[C@H](CC)[C@@]3(C)OC(=O)N(CCCCn4cnc(-c5ccoc5)c4)[C@@H]3[C@@H](C)C(=O)[C@H](C)C[C@@]2(C)OC)[C@@H]1O	0.06

Batch of 4 compounds: report MIC for each.
1. C=CCN(C)[C@H]1C[C@@H](C)O[C@@H](O[C@@H]2[C@@H](C)[C@H](OC(=O)Cc3cccnc3)[C@@H](C)C(=O)O[C@H](CC)[C@@]3(C)OC(=O)N(CCCCn4cnc(-c5ccc(N)nc5)c4)[C@@H]3[C@@H](C)C(=O)[C@H](C)C[C@@]2(C)OC)[C@@H]1O
2. C=CCN(C)[C@H]1C[C@@H](C)O[C@@H](O[C@@H]2[C@@H](C)[C@H](OC(=O)Cc3ccccn3)[C@@H](C)C(=O)O[C@H](CC)[C@@]3(C)OC(=O)N(CCCCn4ccc5cccnc54)[C@@H]3[C@@H](C)C(=O)[C@H](C)C[C@@]2(C)OC)[C@@H]1O
3. C=CCN(C)[C@H]1C[C@@H](C)O[C@@H](O[C@@H]2[C@@H](C)[C@H](OC(=O)Cc3ccccn3)[C@@H](C)C(=O)O[C@H](CC)[C@@]3(C)OC(=O)N(CCCCn4cnc(-c5ccco5)c4)[C@@H]3[C@@H](C)C(=O)[C@H](C)C[C@@]2(C)OC)[C@@H]1O
4. CC[C@H]1OC(=O)[C@H](C)[C@@H](OC(=O)Cc2ccccn2)[C@H](C)[C@@H](O[C@@H]2O[C@H](C)C[C@H](N(C)CC)[C@H]2O)[C@](C)(OC)C[C@@H](C)C(=O)[C@H](C)[C@H]2N(CCCCn3cnc(-c4ccc(N)nc4)c3)C(=O)O[C@]12C

Response line:
[0.06, 0.03, 0.06, 0.06]

Prompt line: State its MIC on Streptococcus pneumoniae: C=CCN(C)[C@H]1C[C@@H](C)O[C@@H](O[C@@H]2[C@@H](C)[C@H](OC(=O)Cc3cccnc3)[C@@H](C)C(=O)O[C@H](CC)[C@@]3(C)OC(=O)N(CCCCn4cnc(-c5cccnc5)c4)[C@@H]3[C@@H](C)C(=O)[C@H](C)C[C@@]2(C)OC)[C@@H]1O
Response line: 0.03

====

tested on: Streptococcus pneumoniae; assay: Antibacterial activity against Streptococcus pneumoniae 6303 by NCCLS method; format: functional
For each record, write down the corresponding MIC.
Numbers only, in µg/mL.

Illustrative cases are given below, each with its answer.
CC[C@H]1OC(=O)[C@H](C)[C@@H](O[C@H]2C[C@@](C)(OC)[C@@H](O)[C@H](C)O2)[C@H](C)[C@@H](O[C@@H]2O[C@H](C)C[C@H](N(C)C)[C@H]2O)[C@](C)(O)C[C@@H](C)C(=O)[C@H](C)[C@@H](O)[C@]1(C)O	0.25
C=CCN(C)[C@H]1C[C@@H](C)O[C@@H](O[C@@H]2[C@@H](C)[C@H](OC(=O)Cc3ccccn3)[C@@H](C)C(=O)O[C@H](CC)[C@@]3(C)OC(=O)N(CCCCn4cnc(-c5cccc(N)c5)c4)[C@@H]3[C@@H](C)C(=O)[C@H](C)C[C@@]2(C)OC)[C@@H]1O	0.03
C=CCN(C)[C@H]1C[C@@H](C)O[C@@H](O[C@@H]2[C@@H](C)[C@H](OC(=O)Cc3ccccn3)[C@@H](C)C(=O)O[C@H](CC)[C@@]3(C)OC(=O)N(CCCCn4cnc5cncnc54)[C@@H]3[C@@H](C)C(=O)[C@H](C)C[C@@]2(C)OC)[C@@H]1O	0.06
CC[C@H]1OC(=O)[C@H](C)[C@@H](O[C@H]2C[C@@](C)(OC)[C@@H](O)[C@H](C)O2)[C@H](C)[C@@H](O[C@@H]2O[C@H](C)C[C@H](N(C)C)[C@H]2O)[C@](C)(O)C[C@@H](C)CN(C)[C@H](C)[C@@H](O)[C@]1(C)O	0.25
C=CCN(C)[C@H]1C[C@@H](C)O[C@@H](O[C@@H]2[C@@H](C)[C@H](OC(=O)Cc3ccccn3)[C@@H](C)C(=O)O[C@H](CC)[C@@]3(C)OC(=O)N(CCCCn4cncc4-c4ccco4)[C@@H]3[C@@H](C)C(=O)[C@H](C)C[C@@]2(C)OC)[C@@H]1O	0.008
CC[C@H]1OC(=O)[C@H](C)[C@@H](OC(=O)Cc2cccnc2)[C@H](C)[C@@H](O[C@@H]2O[C@H](C)C[C@H](N(C)CC)[C@H]2O)[C@](C)(OC)C[C@@H](C)C(=O)[C@H](C)[C@H]2N(CCCCn3cnc4ncccc43)C(=O)O[C@]12C	0.06

Batch of 4 molecules: report MIC for each.
1. C=CCN(C)[C@H]1C[C@@H](C)O[C@@H](O[C@@H]2[C@@H](C)[C@H](OC(=O)Cc3ccccn3)[C@@H](C)C(=O)O[C@H](CC)[C@@]3(C)OC(=O)N(CCCCn4cnc(-c5ccnc(N)c5)c4)[C@@H]3[C@@H](C)C(=O)[C@H](C)C[C@@]2(C)OC)[C@@H]1O
2. CC[C@H]1OC(=O)[C@H](C)[C@@H](OC(=O)Cc2cccnc2)[C@H](C)[C@@H](O[C@@H]2O[C@H](C)C[C@H](N(C)CC)[C@H]2O)[C@](C)(OC)C[C@@H](C)C(=O)[C@H](C)[C@H]2N(CCCCn3cnc(-c4cccnc4)c3)C(=O)O[C@]12C
3. CC[C@H]1OC(=O)[C@H](C)[C@@H](OC(=O)Cc2ccccn2)[C@H](C)[C@@H](O[C@@H]2O[C@H](C)C[C@H](N(C)CC)[C@H]2O)[C@](C)(OC)C[C@@H](C)C(=O)[C@H](C)[C@H]2N(CCCCn3cnc4ncccc43)C(=O)O[C@]12C
4. C=CCN(C)[C@H]1C[C@@H](C)O[C@@H](O[C@@H]2[C@@H](C)[C@H](OC(=O)Cc3ccccn3)[C@@H](C)C(=O)O[C@H](CC)[C@@]3(C)OC(=O)N(CCCCn4cnc5c(N)ncnc54)[C@@H]3[C@@H](C)C(=O)[C@H](C)C[C@@]2(C)OC)[C@@H]1O

Response line:
[0.03, 0.06, 0.06, 0.125]

Batch of 2 molecules: report MIC for each.
1. C=CCN(C)[C@H]1C[C@@H](C)O[C@@H](O[C@@H]2[C@@H](C)[C@H](OC(=O)Cc3ccccn3)[C@@H](C)C(=O)O[C@H](CC)[C@@]3(C)OC(=O)N(CCCCn4cnc5cnccc54)[C@@H]3[C@@H](C)C(=O)[C@H](C)C[C@@]2(C)OC)[C@@H]1O
2. C=CCN(C)[C@H]1C[C@@H](C)O[C@@H](O[C@@H]2[C@@H](C)[C@H](OC(=O)Cc3ccccn3)[C@@H](C)C(=O)O[C@H](CC)[C@@]3(C)OC(=O)N(CCCCn4cnc5cccnc54)[C@@H]3[C@@H](C)C(=O)[C@H](C)C[C@@]2(C)OC)[C@@H]1O

Response line:
1: 0.06; 2: 0.125

Batch of 2 molecules: report MIC for each.
1. CC[C@H]1OC(=O)[C@H](C)[C@@H](O[C@H]2C[C@@](C)(OC)[C@@H](O)[C@H](C)O2)[C@H](C)[C@@H](O[C@@H]2O[C@H](C)C[C@H](N(C)C)[C@H]2O)[C@](C)(OC)C[C@@H](C)C(=O)[C@H](C)[C@@H](O)[C@]1(C)O
2. C=CCN(C)[C@H]1C[C@@H](C)O[C@@H](O[C@@H]2[C@@H](C)[C@H](OC(=O)Cc3ccccn3)[C@@H](C)C(=O)O[C@H](CC)[C@@]3(C)OC(=O)N(CCCCn4cnc(-c5ccc(N)nc5)c4)[C@@H]3[C@@H](C)C(=O)[C@H](C)C[C@@]2(C)OC)[C@@H]1O

Response line:
0.25
0.06

Prompt line: // MIC lookup, key: C=CCN(C)[C@H]1C[C@@H](C)O[C@@H](O[C@@H]2[C@@H](C)[C@H](OC(=O)Cc3cccnc3)[C@@H](C)C(=O)O[C@H](CC)[C@@]3(C)OC(=O)N(CCCCn4cnc5ncccc54)[C@@H]3[C@@H](C)C(=O)[C@H](C)C[C@@]2(C)OC)[C@@H]1O
Response line: 0.06
